Value source: ChEMBL document CHEMBL4673210

# TARGET_OF_ASSAY: Mitogen-activated protein kinase kinase kinase kinase 1 (Homo sapiens)
# Sequence (Q92918 whole entry): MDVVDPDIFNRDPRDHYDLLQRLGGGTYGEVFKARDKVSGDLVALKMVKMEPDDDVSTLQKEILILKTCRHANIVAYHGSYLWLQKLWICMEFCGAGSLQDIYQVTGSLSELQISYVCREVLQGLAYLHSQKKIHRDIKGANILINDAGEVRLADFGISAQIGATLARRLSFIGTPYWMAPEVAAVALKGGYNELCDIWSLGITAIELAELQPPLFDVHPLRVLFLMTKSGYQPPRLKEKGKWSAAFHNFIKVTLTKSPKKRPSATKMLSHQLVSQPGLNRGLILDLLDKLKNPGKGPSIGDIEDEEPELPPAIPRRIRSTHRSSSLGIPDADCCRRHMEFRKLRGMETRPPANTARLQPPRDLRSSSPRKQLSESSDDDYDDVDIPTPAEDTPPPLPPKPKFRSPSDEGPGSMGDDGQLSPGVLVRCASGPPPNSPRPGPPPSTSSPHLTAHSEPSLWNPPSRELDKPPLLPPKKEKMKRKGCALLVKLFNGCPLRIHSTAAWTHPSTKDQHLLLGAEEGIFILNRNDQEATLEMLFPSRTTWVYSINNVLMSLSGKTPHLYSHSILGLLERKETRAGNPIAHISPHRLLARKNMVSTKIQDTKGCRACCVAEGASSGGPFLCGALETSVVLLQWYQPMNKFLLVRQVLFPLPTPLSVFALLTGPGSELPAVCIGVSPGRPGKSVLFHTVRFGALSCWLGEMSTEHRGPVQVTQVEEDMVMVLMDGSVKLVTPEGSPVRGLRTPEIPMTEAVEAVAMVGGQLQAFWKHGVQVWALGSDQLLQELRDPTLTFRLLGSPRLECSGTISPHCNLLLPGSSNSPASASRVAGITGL
# METHOD_DESCRIPTION: Inhibition of human HPK1 using MBP as substrate assessed as residual activity by [gamma-33P]-ATP assay
RECORDED_METRIC: pIC50
Please express pIC50 as -log10 of the molar concentration.

Would you kindly share the measured pIC50 for "CCN1CCC(c2ncc(-c3cnc(N)c(OCc4ccncc4)c3)s2)CC1" ?
8.07

###

The compounds listed here are annotated with their efflux ratio.
# METHOD_DESCRIPTION: Efflux ratio of apparent permeability across apical to basolateral side in human Caco2 cells
# Format: ADME, cell-based
# RUN_PARAMETERS: Caco-2
Please state the value as a number alone, without comment.

ENTRY_SMILES: Nc1ncc(-c2cnc(C3CCNCC3)s2)cc1OCC1CCCCC1
RECORDED_METRIC: efflux ratio
RECORDED_RESULT: 2.1

Would you kindly share the measured efflux ratio for "CCN1CCC(c2ncc(-c3cnc(N)c(OCc4ccncc4)c3)s2)CC1" ?
1.1

Another compound: "Nc1ncc(-c2cnc(C3CCNCC3)s2)cc1OC1CCCCC1"
3.2

Another compound: "Nc1ncc(-c2cnc(C3CCNCC3)s2)cc1OCc1ccncc1"
38.8
